Origin of values: paper PMC3499403

Measured Trypanotoxic activity (%), 18 h incubation at 37°C with 20 µg/ml Nb of individual entries
Molecular target: T1, Variant-specific Surface Glycoprotein (VSG) on live bloodstream form T. b. brucei AnTat1.1 (Trypanosoma brucei brucei AnTat1.1 (endogenous in the parasites)) (UniProt P06015)
T1 sequence: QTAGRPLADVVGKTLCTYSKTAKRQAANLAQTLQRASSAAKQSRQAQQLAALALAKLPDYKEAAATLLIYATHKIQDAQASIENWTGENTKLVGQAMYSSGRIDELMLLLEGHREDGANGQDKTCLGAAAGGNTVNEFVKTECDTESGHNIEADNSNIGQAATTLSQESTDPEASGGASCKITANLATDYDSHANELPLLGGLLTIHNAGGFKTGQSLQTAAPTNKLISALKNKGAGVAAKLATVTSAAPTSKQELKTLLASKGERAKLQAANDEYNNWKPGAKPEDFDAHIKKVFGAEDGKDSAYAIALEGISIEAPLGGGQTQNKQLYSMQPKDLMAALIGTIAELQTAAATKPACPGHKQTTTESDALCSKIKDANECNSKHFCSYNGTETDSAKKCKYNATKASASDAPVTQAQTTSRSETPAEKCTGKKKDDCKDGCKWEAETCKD
Provide the reading as a plain figure in %.

// known answers, use as guide
Nb_An33hum1 (VHH) VHH: DVQLVESGGGSVQAGGSLRLSCAVSGSTYSPCTTGWVRQAPGKEREWVSSISSPGTIYYQDSVKGRFTISRDNAKNTVYLQMNSLQREDTGMYYCQIQCGVRSIREYWGQGTQVTVSS | 0
Nb_An33hum2 (VHH) VHH: DVQLVESGGGSVQAGGSLRLSCAVSGSTYSPCTTGWVRQAPGKGLEWVSSISSPGTIYYQDSVKGRFTISRDNAKNTVYLQMNSLQREDTGMYYCQIQCGVRSIREYWGQGTQVTVSS | 0
Nb_An33hum3 (VHH) VHH: DVQLVESGGGSVQAGGSLRLSCAVSGSTYSPCTTGWYRQAPGKGLEWVSSISSPGTIYYQDSVKGRFTISRDNAKNTVYLQMNSLQREDTGMYYCQIQCGVRSIREYWGQGTQVTVSS | 57

Now consider the entry below.
Just so you know, measured Trypanotoxic activity (%), 18 h incubation at 37°C with 20 µg/ml Nb for Nanobody 33 (Nb_An33), wildtype (VHH) VHH: DVQLVESGGGSVQAGGSLRLSCAVSGSTYSPCTTGWYRQAPGKEREWVSSISSPGTIYYQDSVKGRFTISRDNAKNTVYLQMNSLQREDTGMYYCQIQCGVRSIREYWGQGTQVTVSS came out at 73
